What thermal stability score was measured for each of the following?
Test system: HeLa Kyoto
Experiment: thermal stability score vs G1/S (z-score of summed log2 fold changes over temperatures); higher = more thermally stable than in G1/S
Conditions: cell cycle stage: early G1 (4.5 h after nocodazole release)
Numbers only.

Reference set (2 entries):
[[record]]
record_sequence = "MSELEQLRQEAEQLRNQIQDARKACNDATLVQITSNMDSVGRIQMRTRRTLRGHLAKIYAMHWGYDSRLLVSASQDGKLIIWDSYTTNKMHAIPLRSSWVMTCAYAPSGNYVACGGLDNICSIYNLKTREGNVRVSRELPGHTGYLSCCRFLDDSQIVTSSGDTTCALWDIETAQQTTTFTGHSGDVMSLSLSPDMRTFVSGACDASSKLWDIRDGMCRQSFTGHVSDINAVSFFPNGYAFATGSDDATCRLFDLRADQELLLYSHDNIICGITSVAFSKSGRLLLAGYDDFNCNVWDTLKGDRAGVLAGHDNRVSCLGVTDDGMAVATGSWDSFLRIWN [GNB4]"
quantitative_result = -1.5

[[record]]
record_sequence = "MAASCVLLHTGQKMPLIGLGTWKSEPGQVKAAVKYALSVGYRHIDCAAIYGNEPEIGEALKEDVGPGKAVPREELFVTSKLWNTKHHPEDVEPALRKTLADLQLEYLDLYLMHWPYAFERGDNPFPKNADGTICYDSTHYKETWKALEALVAKGLVQALGLSNFNSRQIDDILSVASVRPAVLQVECHPYLAQNELIAHCQARGLEVTAYSPLGSSDRAWRDPDEPVLLEEPVVLALAEKYGRSPAQILLRWQVQRKVICIPKSITPSRILQNIKVFDFTFSPEEMKQLNALNKNWRYIVPMLTVDGKRVPRDAGHPLYPFNDPY [AKR1A1]"
quantitative_result = -0.223


In the following, a different sequence is considered.
(Q) For HeLa Kyoto, provide thermal stability score of MGVTCVSQMPVAEGKSVQQTVELLTRKLEMLGAEKQGTFCVDCETYHTAASTLGSQGQTGKLMYVMHNSEYPLSCFALFENGPCLIADTNFDVLMVKLKGFFQSAKASKIETRGTRYQYCDFLVKVGTVTMGPSARGISVEVEYGPCVVASDCWSLLLEFLQSFLGSHTPGAPAVFGNRHDAVYGPADTMVQYMELFNKIRKQQQVPVAGIR [MED20] please.
(A) -0.587

* * *

System: HeLa Kyoto;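 note: synchronized HeLa Kyoto cells, proteins quantified by TMT10plex mass spectrometry, three biological replicates, mitosis taken 0.5 h after nocodazole release, G1/S directly after double thymidine block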
Assay: thermal stability score vs G1/S (z-score of summed log2 fold changes over temperatures); higher = more thermally stable than in G1/S
Details: cell cycle stage: early G1 (4.5 h after nocodazole release)
Result Type: thermal stability score

Reference set (3 entries):
[[record]]
substance = "MACAAVMIPGLLRCSVGAIRIEAASLRLTLSTLRHLTLTSIMKSKRKTDHMERTASVLRREIVSAAKVCGAASESPSVKSLRLLVADQDFSFKAGQWVDFFIPGVSVVGGFSICSSPRLLEQERVIELAVKYTNHPPALWVHNTCTLDCEVAVRVGGEFFFDPQPADASRNLVLIAGGVGINPLLSILRHAADLLREQANKRNGYEIGTIKLFYSAKNTSELLFKKNILDLVNEFPEKIACSLHVTKQTTQINAELKPYITEGRITEKEIRDHISKETLFYICGPPPMTDFFSKQLENNHVPKEHICFEKWW [OXNAD1]"
result_type = "thermal stability score"
result = -0.605

[[record]]
substance = "MSAEVKVTGQNQEQFLLLAKSAKGAALATLIHQVLEAPGVYVFGELLDMPNVRELAESDFASTFRLLTVFAYGTYADYLAEARNLPPLTEAQKNKLRHLSVVTLAAKVKCIPYAVLLEALALRNVRQLEDLVIEAVYADVLRGSLDQRNQRLEVDYSIGRDIQRQDLSAIARTLQEWCVGCEVVLSGIEEQVSRANQHKEQQLGLKQQIESEVANLKKTIKVTTAAAAAATSQDPEQHLTELREPAPGTNQRQPSKKASKGKGLRGSAKIWSKSN [COPS7A]"
result_type = "thermal stability score"
result = -1.47

[[record]]
substance = "PIKFYVE"
result_type = "thermal stability score"
result = 0.473


In the following, a different substance is considered.
(Q) Requested read-out: thermal stability score. Entry: MAGLGHPAAFGRATHAVVRALPESLGQHALRSAKGEEVDVARAERQHQLYVGVLGSKLGLQVVELPADESLPDCVFVEDVAVVCEETALITRPGAPSRRKEVDMMKEALEKLQLNIVEMKDENATLDGGDVLFTGREFFVGLSKRTNQRGAEILADTFKDYAVSTVPVADGLHLKSFCSMAGPNLIAIGSSESAQKALKIMQQMSDHRYDKLTVPDDIAANCIYLNIPNKGHVLLHRTPEEYPESAKVYEKLKDHMLIPVSMSELEKVDGLLTCCSVLINKKVDS [DDAH1]
(A) 0.276

Provenance of the data: the supplement of paper PMC5998384
